Test system: DOV13 (Ovarian Carcinoma)
Assay: Bliss excess, mean over the matrix (fraction); higher = more synergy
# Bliss excess listing for each entry below
Number only, please.

Take a look at these entries with their results.
- molecule: "C[C@@H](c1ccc2nccn2c1)n1nnc2ncc(-c3cnn(C)c3)nc21 [Savolitinib] + Cc1c2c(nn1C)CSCc1cc(n(C)n1)CSc1cc(c3ccccc3c1)OCCCc1c(C(=O)O)n(C)c3c-2c(Cl)ccc13 [AZD5991] (first compound max 1 µM, 7x7, partner max 1 µM)"
  Bliss excess: -0.0518
- molecule: "CN(CCO)CC[C@H](CSc1ccccc1)Nc1ccc(S(=O)(=O)NC(=O)c2ccc(N3CCC([C@@H](O)c4ccccc4-c4ccc(Cl)cc4)CC3)cc2)cc1S(=O)(=O)C(F)(F)F [AZD4320] + Cc1cc2ncnn2cc1Nc1ncc2c(n1)n(C1CCOCC1)c(=O)n2C [AZD7648] (first compound max 1 µM, 7x7, partner max 10 µM)"
  Bliss excess: -0.0588

Now for the molecule whose Bliss excess we want.
In: Please supply the value of reported Bliss excess for the item COc1nnc2ccc(N3CCC(c4ccc(OCCN5CCN(C)C(=O)[C@H]5C)cc4)CC3)nn12 [AZD5153] + CC1(C)CCC(CN2CCN(c3ccc(C(=O)NS(=O)(=O)c4ccc(NCC5CCOCC5)c([N+](=O)[O-])c4)c(Oc4cnc5[nH]ccc5c4)c3)CC2)=C(c2ccc(Cl)cc2)C1 [Venetoclax] (first compound max 1 µM, 7x7, partner max 1 µM)
Out: -0.0751

====

Test system: KARPAS-1106P (B-Cell Non-Hodgkin's Lymphoma)
Assay: combination Emax (second highest fraction inhibited in the dose matrix, 72 h); higher = more inhibition; extreme values may be limits of the assay
measurement.name: combination Emax

Worked examples, 2 compounds total:
- compound: "Cn1cnc2c(F)c(Nc3ccc(Br)cc3Cl)c(C(=O)NOCCO)cc21 [Selumetinib] + C[C@@H]1COCCN1C2=NC(=NC(=C2)C3(CC3)[S@](=N)(=O)C)C4=C5C=CNC5=NC=C4 [AZD6738] (first compound max 10 µM, 7x7, partner max 10 µM)"
  combination Emax: 0.648
- compound: "C[C@@H](Oc1cc(-c2cnn(C3CCNCC3)c2)cnc1N)c1c(Cl)ccc(F)c1Cl [Crizotinib] + Cn1cnc2c(F)c(Nc3ccc(Br)cc3Cl)c(C(=O)NOCCO)cc21 [Selumetinib] (first compound max 10 µM, 7x7, partner max 10 µM)"
  combination Emax: 0.953

In: State combination Emax on KARPAS-1106P (B-Cell Non-Hodgkin's Lymphoma). Entry: CN(CCO)CC[C@H](CSc1ccccc1)Nc1ccc(S(=O)(=O)NC(=O)c2ccc(N3CCC([C@@H](O)c4ccccc4-c4ccc(Cl)cc4)CC3)cc2)cc1S(=O)(=O)C(F)(F)F [AZD4320] + Cc1cc2ncnn2cc1Nc1ncc2c(n1)n(C1CCOCC1)c(=O)n2C [AZD7648] (first compound max 1 µM, 7x7, partner max 10 µM)
Out: 0.313

In: GET combination Emax | system: KARPAS-1106P (B-Cell Non-Hodgkin's Lymphoma) | item: CC1(C)CCC(CN2CCN(c3ccc(C(=O)NS(=O)(=O)c4ccc(NCC5CCOCC5)c([N+](=O)[O-])c4)c(Oc4cnc5[nH]ccc5c4)c3)CC2)=C(c2ccc(Cl)cc2)C1 [Venetoclax] + C=CCn1c(=O)c2cnc(Nc3ccc(N4CCN(C)CC4)cc3)nc2n1-c1cccc(C(C)(C)O)n1 [AZD1775] (first compound max 1 µM, partner max 1 µM)
Out: 0.917

In: Please indicate recorded combination Emax of C[C@@H]1COCCN1c1cc(C2([S@](C)(=N)=O)CC2)nc(-c2ccnc3[nH]ccc23)n1 [AZD6738] + Nc1ccn([C@@H]2O[C@H](CO)[C@@H](O)C2(F)F)c(=O)n1 [Gemcitabine] (first compound max 10 µM, 7x7, partner max 0.3 µM) measured with KARPAS-1106P (B-Cell Non-Hodgkin's Lymphoma).
Out: 0.926

In: With KARPAS-1106P (B-Cell Non-Hodgkin's Lymphoma) as the test system, provide measured combination Emax for this compound: CN(C)CCCOc1ccc(-c2ccc3ncc4c(c3c2)n(C2CCOCC2)c(=O)n4C)cn1 [AZD0156] + C=CCn1c(=O)c2cnc(Nc3ccc(N4CCN(C)CC4)cc3)nc2n1-c1cccc(C(C)(C)O)n1 [AZD1775] (first compound max 1 µM, partner max 1 µM)
Out: 0.874

====

Test system: EM-2 (Chronic Myelogenous Leukemia)
Assay: combination Emax (second highest fraction inhibited in the dose matrix, 72 h); higher = more inhibition; extreme values may be limits of the assay
measurement.name: combination Emax

- compound: "COc1cccc(OCCCN)c1-c1cc(Nc2cnc(C#N)cn2)n[nH]1 [Prexasertib] + C[C@@H]1COCCN1C2=NC(=NC(=C2)C3(CC3)[S@](=N)(=O)C)C4=C5C=CNC5=NC=C4 [AZD6738] (first compound max 1 µM, 7x7, partner max 10 µM)"
  combination Emax: 0.994

In: Tell me combination Emax reported for Cc1nc(Nc2ncc(C(=O)Nc3c(C)cccc3Cl)s2)cc(N2CCN(CCO)CC2)n1 [Dasatinib] + CC(=O)Nc1cccc(-n2c(=O)n(C3CC3)c(=O)c3c(Nc4ccc(I)cc4F)n(C)c(=O)c(C)c32)c1 [Trametinib] (first compound max 2 µM, 7x7, partner max 1 µM)
Out: 0.861

In: Quickly give me recorded combination Emax for C=CCn1c(=O)c2cnc(Nc3ccc(N4CCN(C)CC4)cc3)nc2n1-c1cccc(C(C)(C)O)n1 [AZD1775] + O=C(c1cc(Cc2n[nH]c(=O)c3ccccc23)ccc1F)N1CCN(C(=O)C2CC2)CC1 [Olaparib] (first compound max 1 µM, partner max 10 µM)
Out: 0.938

In: Give combination Emax for CC(=O)c1c(C)c2cnc(Nc3ccc(N4CCNCC4)cn3)nc2n(C2CCCC2)c1=O [Palbociclib] + CC1(C)CCC(CN2CCN(c3ccc(C(=O)NS(=O)(=O)c4ccc(NCC5CCOCC5)c([N+](=O)[O-])c4)c(Oc4cnc5[nH]ccc5c4)c3)CC2)=C(c2ccc(Cl)cc2)C1 [Venetoclax] (first compound max 10 µM, 7x7, partner max 1 µM)
Out: 0.287

In: Give the value of combination Emax reported for the following: NC1(C(=O)N[C@@H](CCO)c2ccc(Cl)cc2)CCN(c2ncnc3[nH]ccc23)CC1 [Capivasertib] + CCN(CCO)CCCOc1ccc2c(Nc3cc(CC(=O)Nc4cccc(F)c4)[nH]n3)ncnc2c1 [AZD2811] (first compound max 10 µM, 7x7, partner max 1 µM)
Out: 0.877

In: // Input: CC(=O)Nc1cccc(-n2c(=O)n(C3CC3)c(=O)c3c(Nc4ccc(I)cc4F)n(C)c(=O)c(C)c32)c1 [Trametinib] + Cc1nc(-c2cn3c(n2)-c2ccc(-c4cnn(C(C)(C)C(N)=O)c4)cc2OCC3)n(C(C)C)n1 [Taselisib] (first compound max 1 µM, 7x7, partner max 10 µM) . Output its combination Emax only.
Out: 0.935

In: Return reported combination Emax. Input compound: CN(C)CCCOc1ccc(-c2ccc3ncc4c(c3c2)n(C2CCOCC2)c(=O)n4C)cn1 [AZD0156] + C=CCn1c(=O)c2cnc(Nc3ccc(N4CCN(C)CC4)cc3)nc2n1-c1cccc(C(C)(C)O)n1 [AZD1775] (first compound max 1 µM, partner max 1 µM)
Out: 0.902

====

We begin with a simple list: items and their reported Bliss excess.
Tested on: SNU-C5 (Colorectal Carcinoma)
Assay: Bliss excess, mean over the matrix (fraction); higher = more synergy
Kindly provide the number alone.

- compound: "CCN(CCO)CCCOc1ccc2c(Nc3cc(CC(=O)Nc4cccc(F)c4)[nH]n3)ncnc2c1 [AZD2811] + C[C@@H]1COCCN1C2=NC(=NC(=C2)C3(CC3)[S@](=N)(=O)C)C4=C5C=CNC5=NC=C4 [AZD6738] (first compound max 1 µM, 7x7, partner max 10 µM)"
  assayed.system: "SNU-C5 (Colorectal Carcinoma)"
  measurement.name: "Bliss excess"
  reported: -0.0418

Moving on to the next compound.
In: Complete the entry with Bliss excess for Cc1c2c(nn1C)CSCc1cc(n(C)n1)CSc1cc(c3ccccc3c1)OCCCc1c(C(=O)O)n(C)c3c-2c(Cl)ccc13 [AZD5991] + C[C@@H](Nc1cc(F)cc(F)c1)c1cc(C(=O)N(C)C)cc2c(=O)cc(N3CCOCC3)oc12 [AZD8186] (first compound max 1 µM, 7x7, partner max 3 µM)
Out: 0.0464

====

Tested on: SW756 (Cervical Carcinoma)
Assay: Bliss excess, mean over the matrix (fraction); higher = more synergy
measurement.name: Bliss excess
Answer as a number with no unit attached.

The cases that follow already have their Bliss excess on record.
- compound: "CN(CCO)CC[C@H](CSc1ccccc1)Nc1ccc(S(=O)(=O)NC(=O)c2ccc(N3CCC([C@@H](O)c4ccccc4-c4ccc(Cl)cc4)CC3)cc2)cc1S(=O)(=O)C(F)(F)F [AZD4320] + Cc1cc2ncnn2cc1Nc1ncc2c(n1)n(C1CCOCC1)c(=O)n2C [AZD7648] (first compound max 1 µM, 7x7, partner max 10 µM)"
  measurement.name: "Bliss excess"
  reported: -0.051
- compound: "COc1cccc(OCCCN)c1-c1cc(Nc2cnc(C#N)cn2)n[nH]1 [Prexasertib] + CCc1c2c(nc3ccc(O)cc13)-c1cc3c(c(=O)n1C2)COC(=O)[C@]3(O)CC [SN-38] (first compound max 1 µM, 7x7, partner max 0.3 µM)"
  measurement.name: "Bliss excess"
  reported: -0.0542

In: Using known records, supply Bliss excess for CC1(C)CCC(CN2CCN(c3ccc(C(=O)NS(=O)(=O)c4ccc(NCC5CCOCC5)c([N+](=O)[O-])c4)c(Oc4cnc5[nH]ccc5c4)c3)CC2)=C(c2ccc(Cl)cc2)C1 [Venetoclax] + CN(C)CCCOc1ccc(-c2ccc3ncc4c(c3c2)n(C2CCOCC2)c(=O)n4C)cn1 [AZD0156] (first compound max 1 µM, 7x7, partner max 1 µM)
Out: -0.0215
